// provenance: the RepoRT retention time repository

# METHOD DESCRIPTION: Waters ACQUITY UPLC BEH C18, 100 × 2.1 mm, 1.7 µm, 40 °C, 0.3 to 0.4 mL/min, estimated dead time 0.63 min; A: water + 0.1% formic acid; B: methanol + 0.1% formic acid; gradient (min/%B) 0/0.5 0.1/0.5 10/80 10.1/99.5 12/99.5
# CONDITION NOTES: stereoisomer not certain
MEASURED ATTRIBUTE: LC retention time (min)

Solved cases (5 shown):
MOLECULE	LC retention time / min
CCC1CN2CCC3(C(=O)Nc4ccccc43)C2CC1C(=COC)C(=O)OC (centres undefined)	4.9
CC1CCC2C(C)C3C(CC4C5CC=C6CC(OC7OC(CO)C(O)C(O)C7OC7OC(C)C(O)C(O)C7O)CCC6(C)C5CCC43C)N2C1 (centres undefined)	4.94
COc1cc(O)c(CC=C(C)C)c(O)c1C(=O)C=Cc1ccc(O)cc1	9.06
O=c1cc(-c2ccc(O)cc2)oc2cc(O)cc(O)c12	5.89
CC(C)=CCCC(C)(O)C1CCC2(C)C1C(O)CC1C3(C)CCC(OC4OC(CO)C(O)C(O)C4OC4OC(CO)C(O)C(O)C4O)C(C)(C)C3CCC12C (centres undefined)	8.2

P: CCCCCCCCCCCCOS(=O)(=O)O
Q: c1ccc2c(c1)CN1CCCC1=N2
R: CC1OC(OCC2OC(Oc3cc(O)c4c(c3)OC(c3ccc(O)cc3)CC4=O)C(O)C(O)C2O)C(O)C(O)C1O (centres undefined)
stdin: Would you mind ranking these molecules by ascending LC retention time? Returns: the labels listed in the requested order.
stdout: Q, R, P
(Q: 2.8 min, R: 4.28 min, P: 8.65 min)

---

# METHOD DESCRIPTION: Waters ACQUITY UPLC BEH C18, 100 × 2.1 mm, 1.7 µm, 40 °C, 0.3 to 0.4 mL/min, estimated dead time 0.63 min; A: water + 0.1% formic acid; B: methanol + 0.1% formic acid; gradient (min/%B) 0/0.5 0.1/0.5 10/80 10.1/99.5 12/99.5
# CONDITION NOTES: stereoisomer not certain
MEASURED ATTRIBUTE: LC retention time (min)

COMPOUND	MEASURED ATTRIBUTE	MEASURED RESULT
CC1OC(Oc2c(-c3ccc(O)c(O)c3)oc3cc(O)cc(O)c3c2=O)C(OC2OC(COC(=O)C=Cc3ccc(O)cc3)C(O)C(O)C2O)C(O)C1O (stereo not drawn)	LC retention time	4.67
CC(=O)OC1CC(COC2OC(CO)C(O)C(O)C2OC2OC(CO)C(O)C(O)C2O)CNC12OC1CC3C4CCC5CC(OC6OC(CO)C(OC7OC(CO)C(OC8OCC(O)C(O)C8O)C(O)C7OC7OC(CO)C(O)C(O)C7O)C(O)C6O)CCC5(C)C4CCC3(C)C1C2C (stereo not drawn)	LC retention time	3.84
CC(=O)Oc1ccc(C=Cc2cc(OC(C)=O)cc(OC(C)=O)c2)cc1	LC retention time	8.46

---

# METHOD DESCRIPTION: Waters ACQUITY UPLC BEH C18, 100 × 2.1 mm, 1.7 µm, 40 °C, 0.3 to 0.4 mL/min, estimated dead time 0.63 min; A: water + 0.1% formic acid; B: methanol + 0.1% formic acid; gradient (min/%B) 0/0.5 0.1/0.5 10/80 10.1/99.5 12/99.5
# CONDITION NOTES: stereoisomer not certain
MEASURED ATTRIBUTE: LC retention time (min)

>>> df
                                   compound  measured_result
0           NC(N)=NCCCCNC(=O)C=Cc1ccc(O)cc1             3.07
1  CC1OC(Oc2cc(O)c3c(=O)c(OC4OC(CO)C(O)C(O)C4OC4OC(C)C(O)C(O)C4O)c(-c4ccc(O)c(O)c4)oc3c2)C(O)C(O)C1O (stereo not drawn)             3.09
2  C=C1CC23CC4C5C6(C)CC(O)CC57C(C2C(O)C1C(O)C37)N4C6 (stereo not drawn)             3.07

---

# METHOD DESCRIPTION: Waters ACQUITY UPLC BEH C18, 100 × 2.1 mm, 1.7 µm, 40 °C, 0.3 to 0.4 mL/min, estimated dead time 0.63 min; A: water + 0.1% formic acid; B: methanol + 0.1% formic acid; gradient (min/%B) 0/0.5 0.1/0.5 10/80 10.1/99.5 12/99.5
# CONDITION NOTES: stereoisomer not certain
MEASURED ATTRIBUTE: LC retention time (min)

Worked set:
>>> print(df.to_string())
                                   molecule  measured_result
0  COc1ccc(CC2c3cc(OC)c(OC)cc3CCN2C)cc1OC (configuration not stated)             4.26
1  CC1OC(OCC2OC(Oc3c(-c4ccc(O)c(O)c4)oc4cc(O)cc(O)c4c3=O)C(OC3OCC(O)C(O)C3O)C(O)C2O)C(O)C(O)C1O (configuration not stated)             3.65
2  COC(=O)C12CC3CC(C(C)O)C1N(CCc1c2[nH]c2ccc(OC)cc12)C3 (configuration not stated)             4.61
3                  Cc1ccc([N+](=O)[O-])cc1N             2.34
4  C[N+]1([O-])CCCC1c1cccnc1 (configuration not stated)             1.82

a: CC1OC(Oc2cc(O)c3c(=O)c(OC4OC(CO)C(O)C(O)C4O)c(-c4ccc(O)cc4)oc3c2)C(O)C(O)C1O (configuration not stated)
b: CC1C(=O)OC2C(O)C34C5CC(C(C)(C)C)C36C(OC(=O)C6O)OC4(C(=O)O5)C12O (configuration not stated)
stdin: Smaller LC retention time value? Options are a and b Identify your pick by its label.
stdout: a
(a: 3.7 min, b: 5.36 min)

---

# METHOD DESCRIPTION: Waters ACQUITY UPLC BEH C18, 100 × 2.1 mm, 1.7 µm, 40 °C, 0.3 to 0.4 mL/min, estimated dead time 0.63 min; A: water + 0.1% formic acid; B: methanol + 0.1% formic acid; gradient (min/%B) 0/0.5 0.1/0.5 10/80 10.1/99.5 12/99.5
# CONDITION NOTES: stereoisomer not certain
MEASURED ATTRIBUTE: LC retention time (min)

Study these solved cases before continuing.
MOLECULE	QUANTITY UNIT	MEASURED RESULT
COc1ccc(-c2coc3cc(OC4OC(COC(=O)CC5CCNCC5)C(O)C(O)C4O)c(OC)cc3c2=O)cc1 (centres undefined)	min	4.67
CC(C)=CCCC(C)(OC1OC(CO)C(O)C(O)C1O)C1CCC2(C)C1C(O)CC1C3(C)CCC(O)C(C)(C)C3CCC12C (centres undefined)	min	9.51
COc1ccc(-c2cc(=O)c3c(O)cc(OC4OC(CO)C(O)C(O)C4OC4OC(C)C(O)C(O)C4O)cc3o2)cc1O (centres undefined)	min	4.47

I: CC(O)(CC(=O)O)CC(=O)OCC1OC(Oc2c(-c3ccc(O)cc3)oc3cc(OC4OC(CO)C(O)C(O)C4O)cc(O)c3c2=O)C(O)C(O)C1O (centres undefined)
II: COc1cc(O)c2c(=O)c(OC3OC(COC4OC(C)C(O)C(OC5OC(C)C(O)C(O)C5O)C4O)C(O)C(O)C3O)c(-c3ccc(O)c(O)c3)oc2c1 (centres undefined)
III: CC1=C(O)C(=O)CC(OC2CC(C)(C)CC3C4=CCC5C6(C)CCC(OC7OC(C(=O)O)C(O)C(O)C7OC7OC(C(=O)O)C(O)C(O)C7O)C(C)(CO)C6CCC5(C)C4(C)CCC23C)O1 (centres undefined)
IV: CC(C)CC(N)C(=O)NCC(=O)O (centres undefined)
stdin: rank_up(items): orders items by reported LC retention time in ascending numerical order. Note for the reader: the ranking is given by listing the labels in the order requested.
stdout: IV, I, II, III
(IV: 2.08 min, I: 3.34 min, II: 4.79 min, III: 7.96 min)

P: O=C(O)CC(=O)OCC1OC(Oc2c(-c3ccc(O)cc3)oc3cc(OC4OC(CO)C(O)C(O)C4O)cc(O)c3c2=O)C(O)C(O)C1O (centres undefined)
Q: COc1cc(C=O)ccc1OC(C)=O
stdin: Just curious, which one has the larger LC retention time reading, P or Q ? Select an item and report its label.
stdout: Q

P: COc1ccc(-c2cc(=O)c3c(O)cc(O)cc3o2)cc1-c1c(O)cc(O)c2c(=O)cc(-c3ccc(O)cc3)oc12
Q: O=c1cc(-c2ccc(O)cc2)oc2cc(OC3OC(CO)C(O)C(O)C3O)cc(O)c12 (centres undefined)
stdin: Form field 'greater LC retention time' accepts P or Q ; which applies? # respond with the chosen item's label
stdout: P
(P: 6.07 min, Q: 4.18 min)
